The reported numbers originate from patent US10231966B2.

- protocolSummary: in vivo
- conditionInfo: male, Sprague Dawley, rat, inhaled or intranasal, terminal half-life in lung (t1/2β)
measurementType: half-life (h)
Enter your answer as a number in h; do not include the unit.

stdin: What does the data say about its half-life? Entry: `COc1ccc(-c2cncc(N[C@@H](C)c3cccc(NC(=O)c4cncc(C)c4)c3)n2)cc1OC`
stdout: 6.43

----------
- protocolSummary: in vivo
- conditionInfo: male, Sprague Dawley, rat, 0.4 mg/kg
measurementType: Kp

stdin: What Kp value was documented for this molecule, `COc1ccc(-c2cncc(N[C@@H](C)c3cccc(NC(=O)c4cncc(C)c4)c3)n2)cc1OC` ?
stdout: 20 to 80
